Give measured viability, T/C for each item. Keep answers brief.
test system: 817829-284-R-J1-PDC multi-cell spheroid viability; assay: Anticancer human tumor 817829-284-R-J1-PDC patient-derived colon adenocarcinoma cell line growth inhibition [PI3K]; settings: second compound 0.00316 µM; first compound 0.0316 µM; stronger effect = lower value
Answers are plain numbers, in %.

Some molecules with known viability, T/C results, for comparison:
[[record]]
molecule = "Cn1nccc1Nc1nccc(-c2ccn(C(CO)c3ccc(Cl)c(F)c3)c(=O)c2)n1 (centres undefined) + CC(Nc1ccc2c(c1)OCCn1cc(N3C(=O)OCC3C(F)F)nc1-2)C(N)=O"
measurement = 87.6

[[record]]
molecule = "Cn1ncnc1[C@H]1c2n[nH]c(=O)c3cc(F)cc(c23)N[C@@H]1c1ccc(F)cc1 + CC(Nc1ccc2c(c1)OCCn1cc(N3C(=O)OCC3C(F)F)nc1-2)C(N)=O"
measurement = 71.1

[[record]]
molecule = "C=CC(=O)N1CCN(c2nc(=O)n(-c3c(C)ccnc3C(C)C)c3nc(-c4c(O)cccc4F)c(F)cc23)C(C)C1 (centres undefined) + CC(Nc1ccc2c(c1)OCCn1cc(N3C(=O)OCC3C(F)F)nc1-2)C(N)=O"
measurement = 91.4


Let's switch to this molecule now.
Looking up CC(Cn1ccc(-c2ccc(C#N)c(Cl)c2)n1)NC(=O)c1cc(C(C)O)[nH]n1 (centres undefined) + CC(Nc1ccc2c(c1)OCCn1cc(N3C(=O)OCC3C(F)F)nc1-2)C(N)=O , I found its viability, T/C recorded as 91.8

----------
Give measured pIC50 for each item. Keep answers brief.
system: 817829-284-R-J1-PDC multi-cell spheroid viability; assay: Anticancer human tumor 817829-284-R-J1-PDC cell line growth inhibition [PI3K]; details: curve of first compound; second compound 0.0316 µM;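 also: spheroids exposed to agents for seven days before readout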
pIC50: −log10 of the molar value.

Some compounds with known pIC50 results, for comparison:
[[record]]
compound = "Cn1ncc(Cl)c1-c1cc(C(=O)NC(CN)Cc2cccc(F)c2)sc1Cl (stereo not drawn) + CC(Nc1ccc2c(c1)OCCn1cc(N3C(=O)OCC3C(F)F)nc1-2)C(N)=O"
measurement = "> 7.50"

[[record]]
compound = "C[C@@H](NC(=O)c1ncnc(N)c1Cl)c1ncc(C(=O)Nc2cc(C(F)(F)F)c(Cl)cn2)s1 + Cc1nc(NC(=O)N2CCCC2C(N)=O)sc1-c1ccnc(C(C)(C)C(F)(F)F)c1"
measurement = "< 5.00"


Let's switch to this compound now.
Looking up CC(Cn1ccc(-c2ccc(C#N)c(Cl)c2)n1)NC(=O)c1cc(C(C)O)[nH]n1 (stereo not drawn) + Cc1nc(NC(=O)N2CCCC2C(N)=O)sc1-c1ccnc(C(C)(C)C(F)(F)F)c1 , I found its pIC50 recorded as < 5.00
